- SYSTEM: human CD33 F345A (human, UniProt P20138 18-364)
- Sequence (P20138 18-364 F345A limits assumed): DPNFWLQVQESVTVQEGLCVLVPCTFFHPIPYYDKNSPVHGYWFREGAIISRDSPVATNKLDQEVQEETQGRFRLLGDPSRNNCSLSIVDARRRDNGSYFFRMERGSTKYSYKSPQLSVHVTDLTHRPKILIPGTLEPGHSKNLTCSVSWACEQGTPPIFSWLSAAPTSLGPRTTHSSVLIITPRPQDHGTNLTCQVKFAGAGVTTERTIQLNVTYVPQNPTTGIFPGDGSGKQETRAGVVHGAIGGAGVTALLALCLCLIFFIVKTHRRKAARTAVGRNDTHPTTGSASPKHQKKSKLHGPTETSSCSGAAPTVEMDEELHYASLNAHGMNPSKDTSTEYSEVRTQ
- EXPERIMENT SUMMARY: flow cytometry, alanine scan
OBSERVATION TYPE: Mean % WT Binding

Problem: Retrieve Mean % WT Binding measured for Refmab #3 (antibody, V domains shown, The alanine scan used IgG or Fab) VH: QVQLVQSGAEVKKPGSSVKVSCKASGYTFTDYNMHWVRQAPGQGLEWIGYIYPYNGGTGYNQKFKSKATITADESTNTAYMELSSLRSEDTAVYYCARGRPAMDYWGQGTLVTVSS VL: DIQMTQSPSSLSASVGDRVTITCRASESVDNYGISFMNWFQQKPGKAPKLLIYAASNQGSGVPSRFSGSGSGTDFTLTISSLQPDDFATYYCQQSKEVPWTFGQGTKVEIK and print it.
Result: 84 % of WT

Provenance of the data: patent US20260242735A1
